Source of measurements: BindingDB's records for doi:10.1016/j.bmcl.2020.127004

TEST_NAME: Non-nucleoside inhibition of NS5B polymerase in HCV genotype 2a by Taqman probe based RT-PCR analysis
PROPERTY_NAME: pEC50
Note on units: pEC50 is unitless, being -log10 of a concentration expressed in mol/L.

MOLECULE: CNC(=O)c1c(-c2ccc(F)cc2)oc2cc(N(C)S(C)(=O)=O)c(-c3cc4c(=O)n(Cc5ccc(F)cc5)nnc4cc3C)cc12 [US9364482, 72]
NUMERIC_RESULT: 8.18

MOLECULE: CNC(=O)c1c(-c2ccc(F)cc2)oc2cc(N(C)S(C)(=O)=O)c(-c3ccc4nc(COC)n(Cc5ccc(F)cc5)c(=O)c4c3)cc12 [US9364482, 53]
NUMERIC_RESULT: 8.09

MOLECULE: CNC(=O)c1c(-c2ccc(F)cc2)oc2cc(N(C)S(C)(=O)=O)c(-c3ccc4nc(C)n(Cc5ccc(F)cc5F)c(=O)c4c3)cc12
NUMERIC_RESULT: 8.08

# input molecule: CNC(=O)c1c(-c2ccc(F)cc2)oc2cc(N(C)S(C)(=O)=O)c(-c3cc(C)c4nnn(Cc5ccc(F)cc5)c(=O)c4c3)cc12 [US9364482, 74] ; wanted: its pEC50 8.21

Data request, read-out pEC50, for CNC(=O)c1c(-c2ccc(F)cc2)oc2cc(N(C)S(C)(=O)=O)c(-c3ccc4nc(CNC(C)=O)n(Cc5ccc(F)cc5)c(=O)c4c3)cc12 [US9364482, 54] 7.24

Would you kindly share the measured pEC50 for CNC(=O)c1c(-c2ccc(F)cc2)oc2cc(N(C)S(C)(=O)=O)c(-c3ccc4nc(C)n(Cc5ccc(F)cc5)c(=O)c4n3)cc12 [US9364482, 68] ? 8.00

====

TEST_NAME: Non-nucleoside inhibition of NS5B polymerase in HCV genotype 1a by Taqman probe based RT-PCR analysis
PROPERTY_NAME: EC50 (nM)
All answers are understood in nM, so give the number only.

These recorded examples may help you get a feel for the data.
COMPOUND: CNC(=O)c1c(-c2ccc(F)cc2)oc2cc(N(C)S(C)(=O)=O)c(-c3ccc4nc(C)n(Cc5ccc(F)cc5)c(=O)c4c3)cc12
UNITS_SYMBOL: nM
EC50: 0.3
--
COMPOUND: CNC(=O)c1c(-c2ccc(F)cc2)oc2cc(N(C)S(C)(=O)=O)c(-c3ccc4c(n3)C(=O)N(c3ccc(F)cc3)CO4)cc12
UNITS_SYMBOL: nM
EC50: 19
--
COMPOUND: CNC(=O)c1c(-c2ccc(F)cc2)oc2cc(N(C)S(C)(=O)=O)c(-c3cc4c(=O)n(Cc5ccc(F)cc5)nnc4cc3C)cc12
UNITS_SYMBOL: nM
EC50: 2.3
--
COMPOUND: CNC(=O)c1c(-c2ccc(F)cc2)oc2cc(N(C)S(C)(=O)=O)c(-c3ccc4nc(C)n(Cc5ccc(F)cc5OC)c(=O)c4c3)cc12
UNITS_SYMBOL: nM
EC50: 1

Given `CNC(=O)c1c(-c2ccc(F)cc2)oc2cc(N(C)S(C)(=O)=O)c(-c3cc(OC)c4nnn(Cc5ccc(F)cc5)c(=O)c4c3)cc12` , state its recorded EC50. 0.8

Fill blank: measured EC50 of the compound `CNC(=O)c1c(-c2ccc(F)cc2)oc2cc(N(C)S(C)(=O)=O)c(-c3ccc4nnn(Cc5ccc(F)cc5)c(=O)c4c3)cc12` is ____. 1.7

Quick check: EC50 of `CNC(=O)c1c(-c2ccc(F)cc2)oc2cc(N(C)S(C)(=O)=O)c(-c3ccc4nc(C)n(Cc5ccc(F)cc5)c(=O)c4n3)cc12` ? 1.1

I have this compound here, CNC(=O)c1c(-c2ccc(F)cc2)oc2cc(N(C)S(C)(=O)=O)c(-c3ccc4nnn(C(CO)c5ccc(F)cc5)c(=O)c4c3)cc12 (centres undefined) , and I need its recorded EC50. 7.3

====

TEST_NAME: Non-nucleoside inhibition of NS5B polymerase in HCV genotype 2b by Taqman probe based RT-PCR analysis
PROPERTY_NAME: pEC50
Note on pEC50: it is the negative log10 of concentration, concentration in mol/L.

Examples with answers:
COMPOUND: CNC(=O)c1c(-c2ccc(F)cc2)oc2cc(N(C)S(C)(=O)=O)c(-c3ccc4nc(C)n(Cc5ccc(F)cc5)c(=O)c4c3)cc12
pEC50: 8.82
--
COMPOUND: CNC(=O)c1c(-c2ccc(F)cc2)oc2cc(N(C)S(C)(=O)=O)c(-c3ccc4nc(C)n(Cc5ccc(F)cc5)c(=O)c4n3)cc12
pEC50: 8.57
--
COMPOUND: CNC(=O)c1c(-c2ccc(F)cc2)oc2cc(N(C)S(C)(=O)=O)c(-c3ccc4nc(CNC(C)=O)n(Cc5ccc(F)cc5)c(=O)c4c3)cc12
pEC50: 8.23
--
COMPOUND: CNC(=O)c1c(-c2ccc(F)cc2)oc2cc(N(C)S(C)(=O)=O)c(-c3cc(C)c4nnn(Cc5ccc(F)cc5)c(=O)c4c3)cc12
pEC50: 8.17
--
COMPOUND: CNC(=O)c1c(-c2ccc(F)cc2)oc2cc(N(C)S(C)(=O)=O)c(-c3ccc4c(n3)C(=O)N(Cc3ccc(F)cc3)CO4)cc12
pEC50: 7.72

Next, consider the following compound.
Recorded pEC50 for CNC(=O)c1c(-c2ccc(F)cc2)oc2cc(N(C)S(C)(=O)=O)c(-c3ccc4nnn(C(C)c5ccc(F)cc5)c(=O)c4c3)cc12 (stereo unspecified) , please? 8.24

====

TEST_NAME: Non-nucleoside inhibition of NS5B polymerase in HCV genotype 3a by Taqman probe based RT-PCR analysis
PROPERTY_NAME: EC50 (nM)
Number only, in nM; omit the unit.

COMPOUND: CNC(=O)c1c(-c2ccc(F)cc2)oc2cc(N(C)S(C)(=O)=O)c(-c3ccc4nc(C)n(Cc5ccc(F)cc5OC)c(=O)c4c3)cc12
PROPERTY_NAME: EC50
NUMERIC_RESULT: 1.1

COMPOUND: CNC(=O)c1c(-c2ccc(F)cc2)oc2cc(N(C)S(C)(=O)=O)c(-c3ccc4c(n3)C(=O)N(Cc3ccc(F)cc3)CO4)cc12
PROPERTY_NAME: EC50
NUMERIC_RESULT: 1.8

COMPOUND: CNC(=O)c1c(-c2ccc(F)cc2)oc2cc(N(C)S(C)(=O)=O)c(-c3ccc4nnn(C(CO)c5ccc(F)cc5)c(=O)c4c3)cc12 (stereo not drawn)
PROPERTY_NAME: EC50
NUMERIC_RESULT: 0.9

COMPOUND: CNC(=O)c1c(-c2ccc(F)cc2)oc2cc(N(C)S(C)(=O)=O)c(-c3ccc4nnn(Cc5ccc(F)cn5)c(=O)c4c3)cc12
PROPERTY_NAME: EC50
NUMERIC_RESULT: 1.1

COMPOUND: CNC(=O)c1c(-c2ccc(F)cc2)oc2cc(N(C)S(C)(=O)=O)c(-c3ccc4nnn(Cc5ccccc5)c(=O)c4c3)cc12
PROPERTY_NAME: EC50
NUMERIC_RESULT: 1

# EC50 lookup, item `CNC(=O)c1c(-c2ccc(F)cc2)oc2cc(N(C)S(C)(=O)=O)c(-c3ccc4nc(C)n(Cc5ccc(F)cc5)c(=O)c4n3)cc12` 1

Reported EC50, compound `CNC(=O)c1c(-c2ccc(F)cc2)oc2cc(N(C)S(C)(=O)=O)c(-c3ccc4nc(COC)n(Cc5ccc(F)cc5)c(=O)c4c3)cc12` : ____ 0.8

Item under review: `CNC(=O)c1c(-c2ccc(F)cc2)oc2cc(N(C)S(C)(=O)=O)c(-c3ccc4nnn([C@@H](COC)c5ccc(F)cc5)c(=O)c4c3)cc12` . Reported EC50? 1.8

====

Overview of recorded EC50 for various molecules
TEST_NAME: Non-nucleoside inhibition of NS5B polymerase in HCV genotype 2b by Taqman probe based RT-PCR analysis
I only need the number, in nM, no unit after it.

// solved cases for EC50 follow
MOLECULE: CNC(=O)c1c(-c2ccc(F)cc2)oc2cc(N(C)S(C)(=O)=O)c(-c3cc4c(=O)n(Cc5ccc(F)cc5)nnc4cc3F)cc12 [US9364482, 70]
UNITS_SYMBOL: nM
NUMERIC_RESULT: 2.9

MOLECULE: CNC(=O)c1c(-c2ccc(F)cc2)oc2cc(N(C)S(C)(=O)=O)c(-c3ccc4nc(C)n(Cc5ccc(F)cc5F)c(=O)c4c3)cc12
UNITS_SYMBOL: nM
NUMERIC_RESULT: 5.4

Attention now shifts to the item below.
What measured EC50 goes with CNC(=O)c1c(-c2ccc(F)cc2)oc2cc(N(C)S(C)(=O)=O)c(-c3ccc4nnn([C@@H](COC)c5ccc(F)cc5)c(=O)c4c3)cc12 [US9364482, 41] ? 11

====

TEST_NAME: Non-nucleoside inhibition of NS5B polymerase in HCV genotype 2a by Taqman probe based RT-PCR analysis
PROPERTY_NAME: pEC50
Note on units: pEC50 is unitless, being -log10 of a concentration expressed in mol/L.

Example results:
MOLECULE_SMILES: CNC(=O)c1c(-c2ccc(F)cc2)oc2cc(N(C)S(C)(=O)=O)c(-c3ccc4nnn(Cc5ccc(F)cn5)c(=O)c4c3)cc12
pEC50: 7.96
//
MOLECULE_SMILES: CNC(=O)c1c(-c2ccc(F)cc2)oc2cc(N(C)S(C)(=O)=O)c(-c3ccc4c(n3)C(=O)N(Cc3ccc(F)cc3)CO4)cc12
pEC50: 8.34

// lookup pEC50 for `CNC(=O)c1c(-c2ccc(F)cc2)oc2cc(N(C)S(C)(=O)=O)c(-c3ccc4ncn(Cc5ccccc5)c(=O)c4c3)cc12` 7.74
